Recorded values, source patent US10865194B2.

- ASSAYED TARGET: human NAAA (Homo sapiens, UniProt Q02083)
- Construct: expressed in transfected cells; host or cells: HEK-293 (stably transfected, G418 selection); enzyme-enriched lysate
- Sequence (Q02083 126-359 limits assumed): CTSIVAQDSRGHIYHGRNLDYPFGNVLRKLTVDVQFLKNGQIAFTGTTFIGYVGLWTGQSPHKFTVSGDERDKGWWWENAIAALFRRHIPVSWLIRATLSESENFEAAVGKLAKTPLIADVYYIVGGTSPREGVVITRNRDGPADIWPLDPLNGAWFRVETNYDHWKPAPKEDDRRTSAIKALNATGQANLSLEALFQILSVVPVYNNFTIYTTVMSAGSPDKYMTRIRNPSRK
- Sequence (Q02083 29-125 limits assumed): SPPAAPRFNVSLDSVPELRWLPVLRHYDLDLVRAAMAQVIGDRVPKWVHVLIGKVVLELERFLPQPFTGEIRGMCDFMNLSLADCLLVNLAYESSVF
- ASSAY SUMMARY: In vitro human NAAA fluorogenic assay
- Assay type: biochemical
- CONDITIONS: Activity h-NAAA Fluorogenic assay, enzyme-enriched lysate of HEK-293 cells stably transfected with human NAAA
pIC50: −log10 of the molar value.
Quick reference: pIC50 of the listed items.
MEASURED METRIC: pIC50

INSERT INTO assay_data (compound, reported_measurement) VALUES
  ('CCCCc1ccc(OC2CC3CCC(C2)N3S(=O)(=O)c2c(C)n[nH]c2C)cc1 (centres unmarked) [Example 03]', '< 5.70'),
  ('CCCCc1ccc(OC2CC3CCC(C2)N3S(=O)(=O)c2c(C)n[nH]c2C)cc1 (centres unmarked) [Example 54]', '> 6.00');
